# credit: the supplement of paper PMC12042874

- Assay procedure: amyloid nucleation score (Sup35N fusion, yeast selection) (log enrichment); library NNK1; higher = more nucleation; inactive = no reads after selection;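 further: zero at mode of non-aggregating sequences after 7 days selection at 30°C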
Response key: yes means amyloid nucleation score >= 0.2; no means amyloid nucleation score < 0.2.

Observe how each entry below is paired with its result.
YVLKCKNILMYEYLNEVKIS    yes
LYVHSFFRFMWSDKVLLSKT    yes
QTCAYGLRNTTSTVCLYRWG    yes

q: Is reported amyloid nucleation score greater than or equal to 0.2 here: `NSYRFSLFQ`
a: yes

q: In plain terms: is recorded amyloid nucleation score at least 0.2 for `PFMLRSNGQWTSYINCIFIS` ?
a: yes

q: Please indicate if the recorded amyloid nucleation score for `EYVRRKFQPSCTVMRYCFAR` meets or exceeds 0.2.
a: no

q: Could you verify whether the entry `DYESKSNFPYTQVNAITW` shows amyloid nucleation score of no less than 0.2?
a: no

q: Could you verify whether the entry `LINDRPPSSAMERRNVATSS` shows amyloid nucleation score of no less than 0.2?
a: no

q: Does the reported amyloid nucleation score for `NTSVLLTVLVG` fall at or above the 0.2 mark?
a: yes

q: Could you please find out whether `QRFQAGPCRFSE` has amyloid nucleation score that meets 0.2 or exceeds it?
a: no

====

- Assay procedure: amyloid nucleation score (Sup35N fusion, yeast selection) (log enrichment); library NNK1; higher = more nucleation; inactive = no reads after selection
Exercise: for every item that follows, state its recorded amyloid nucleation score.
Numbers only.

Sample records with amyloid nucleation score:
SRTVVTYHQLTWHGVGYMV    0.571
WGCDLEAALY    0.016
KCYLLRKVGCWHQHLDGHFG    -0.429
FKTYYLATLDTNS    -1.73

q: What amyloid nucleation score value was documented for this substance, `YGLDPHSAAEALLVRPNTGR` ?
a: -0.18

====

- Assay procedure: amyloid nucleation score (Sup35N fusion, yeast selection) (log enrichment); library NNK1; higher = more nucleation; inactive = no reads after selection
Measured quantity: amyloid nucleation score

GMLGDVTVYLACRLLISRFL    inactive
FDVFMRYG    inactive
QCHVVDFRRKYLELRSSLRY    inactive
MCPTLVLSA    inactive
FYTLKFMVKALTVKKGVCVV    inactive

Each of the following entries comes with a recorded value; kindly state amyloid nucleation score for each.
1. LGRRIPCNLEWHHLDGALTR
2. RSSNLVCYFFSVWWY
3. RPLRCWAIHYGQVYDSSAIL
4. TWEFRYNFFYNVPRLQTYKI

a:
1: 0.013; 2: 2.02; 3: 0.987; 4: -0.169

====

- Assay procedure: amyloid nucleation score (Sup35N fusion, yeast selection) (log enrichment); library NNK3; higher = more nucleation; inactive = no reads after selection
Measured quantity: amyloid nucleation score

SFVQRVSLLMSVSVFETASS    inactive
VFVQTLILWVHSRIAALQDS    inactive
WINGTISDC    inactive
FTQYFLTRCDYYVEYYMLDR    inactive

Below are some substances; for each one, tell me its amyloid nucleation score.
1. TTRIVSNCCMLIVL
2. FLVNFGKDFEIWREHYGVTI

a:
1.29
-0.484

====

- Assay procedure: amyloid nucleation score (Sup35N fusion, yeast selection) (log enrichment); library NNK1; higher = more nucleation; inactive = no reads after selection
Measured quantity: amyloid nucleation score

EIAYVLICRHLLECIRA    inactive
GRGVLDYNGTTKKARVNRLC    inactive
VESDKCQLGTLSIMYICFFL    inactive

====

- Assay procedure: amyloid nucleation score (Sup35N fusion, yeast selection) (log enrichment); library NNK1; higher = more nucleation; inactive = no reads after selection
# amyloid nucleation score >= 0.5 gives 1.0, anything below gives 0.0

SFEWSSFTYFSNFWWLEPNT    1.0
VRECRSMERTTHQVCTWGGA    0.0
CGNLVCCNIMTDKNGY    1.0
MSLLALWCLSVRCTVVLVRT    0.0
HKIHAVQLLQVRYLNKRLAG    1.0

q: # bool: amyloid nucleation score of `DFLIAVMEQSMAQFKGHSSD` >= 0.5
a: 0.0

q: // inclusive: amyloid nucleation score at least 0.5? input: `SIFLCVSLSVTCETILAGLD`
a: 1.0

q: Say whether `MGAWINYIAPTRYYLMDFFW` shows amyloid nucleation score of 0.5 or more.
a: 0.0

q: Does the reported amyloid nucleation score for `MLQCYLLFARYLLRNLSWGW` fall at or above the 0.5 mark?
a: 1.0

q: Decide: is the reported value of amyloid nucleation score for `KVFYVLLHGSILSNRGMWQT` equal to or greater than 0.5?
a: 0.0

q: Threshold query (amyloid nucleation score >= 0.5) on `TKGAFKVEKWSLSE`
a: 0.0

q: I'd appreciate it if you could say whether `RCYFAWPEWLGYGCVVMERG` has amyloid nucleation score at least equal to 0.5.
a: 0.0

q: Tell me whether amyloid nucleation score is at least 0.5 here: `RFFGFS`
a: 0.0

q: Evaluate `NIANSWYW` : amyloid nucleation score at minimum 0.5?
a: 0.0

q: Textbook exercise: given the entry `PCCWLPRGDTLDYTQHR` , state whether its amyloid nucleation score is greater than or equal to 0.5.
a: 0.0

q: Answer whether amyloid nucleation score of `DIPIDIWSYPQHGRFS` is greater than or equal to 0.5.
a: 0.0

q: Reported amyloid nucleation score reaches at least 0.5 for `DVDGEVRVLDFV` ?
a: 0.0

q: Does amyloid nucleation score meet or surpass 0.5 for `TIFLSF` ?
a: 0.0

q: Determine whether measured amyloid nucleation score meets or exceeds 0.5 for `NTRAPFLKHLNYFAYTTFII`
a: 0.0

q: Does the reported amyloid nucleation score for `WGFRENETMV` fall at or above the 0.5 mark?
a: 0.0

q: Textbook exercise: given the entry `LVCDQLLIITLKCDERHQVT` , state whether its amyloid nucleation score is greater than or equal to 0.5.
a: 1.0

q: Given the entry `LNQRWCCFTISALR` , answer whether its amyloid nucleation score meets or surpasses 0.5.
a: 1.0

q: Is it the case that `ALFCDDEYRRDYW` has amyloid nucleation score reaching or exceeding 0.5?
a: 0.0

q: Decide: amyloid nucleation score of `SNQRKYGAPVKSLWEIFKSE` >= 0.5?
a: 1.0

q: Is the recorded value of amyloid nucleation score equal to or greater than 0.5 for this substance? `IGLVCCCSSFEFMRWY`
a: 1.0

q: Could you verify whether the entry `KRRWPSSNGDFFAECYQLGT` shows amyloid nucleation score of no less than 0.5?
a: 0.0

q: // inclusive: amyloid nucleation score at least 0.5? input: `ELERWLDQKGTLQLEDQTLV`
a: 0.0

q: Decide: amyloid nucleation score of `FIATNLSLYGFVYWLLSTTT` >= 0.5?
a: 0.0

q: Would you say `PQRRGHIRIDRILSSTWTVA` shows amyloid nucleation score at minimum 0.5?
a: 0.0

q: Textbook exercise: given the entry `VSVTLLFFTVPIQGRVMQFS` , state whether its amyloid nucleation score is greater than or equal to 0.5.
a: 0.0

q: Dear colleague, could you confirm whether `SSVPHFAGSVVASDPPLYRL` has amyloid nucleation score at or above 0.5?
a: 1.0

====

- Assay procedure: amyloid nucleation score (Sup35N fusion, yeast selection) (log enrichment); library NNK3; higher = more nucleation; inactive = no reads after selection
Measured quantity: amyloid nucleation score

Example entries begin here.
NGFIILADCQMVCLRTSDLM    1.77
IYTSGWINYSIARFACCIRW    inactive
LVHDLDLCSPGVSYQKSRMS    inactive
PQASVDQFLYFPIWTYLGIN    inactive
NCQLLKLDSGSLSLCRWVHS    inactive
VIVYQKSMLHLGCSLGIAFW    inactive
YVIITGRKQGITNM    inactive
YAFKVCS    inactive

Provide amyloid nucleation score for all items below, preserving their order.
1. CLVSLVFRFIVY
2. LKRNVNYVNLNVFRLFLK
3. STSSLASNYRDFSIR
4. VGSRAGYMRQLSVSACTRVL
5. KPWMVEAPFERA
6. VVLNWNTNGY

a:
1: inactive; 2: inactive; 3: inactive; 4: inactive; 5: inactive; 6: 0.669

Please look at the items below and tell me amyloid nucleation score for each one, in order.
1. VLPVHNKVNITLTVSAPWLW
2. SKRVIVWVTSLYWDV
3. FNDNVFIGRYVRTSYCLNLR
4. LLNPCKRSCVNLRMHTQPSS
5. YQVVVGNFCLLHSVCI
6. FAQLISYHSMLTCCKMTM
7. ELGFFCSL
8. FGRFVMERLTS

a:
inactive
inactive
1.72
inactive
0.124
1.54
inactive
inactive

Each substance below has a reported value. Please supply its amyloid nucleation score.
1. YSNHLD
2. ARYDRS
3. KCAALLDPDSASGGRCEWNC
4. FFCMWDRMIALWSHFCNLDG
5. LYHPGALVHQQIDS
6. DISHKLNTTIVMYFREALRG
7. SLVAYLIEGIFNLWEALMDR
8. VYGLMIIWVIVLYPV

a:
1. inactive
2. inactive
3. 1.08
4. inactive
5. inactive
6. inactive
7. inactive
8. inactive

Parameters: items (list). Returns: amyloid nucleation score for each item.
1. FGFRCWLFWS
2. SLAINSYVCMYIHFQTTMRD
3. YFPGGTLDY
4. NVTCGRLTPSRDLKHAPVI
5. MTGCHCSSVAR
6. SIRKHFPIRNMDELHSARN
7. WSYIVLTVLTWVACCTFWFV

a:
1. inactive
2. inactive
3. inactive
4. -0.32
5. -0.299
6. inactive
7. -0.436
